pEC50 by entry:
molecular target: human 5-HT1A receptor (Homo sapiens, UniProt P08908); experiment: cAMP measurements, agonist mode: inhibition of forskolin-induced increase in cAMP; conditions: forskolin 1 uM, 5-HT1A.CHO cells
Sequence (P08908 whole entry): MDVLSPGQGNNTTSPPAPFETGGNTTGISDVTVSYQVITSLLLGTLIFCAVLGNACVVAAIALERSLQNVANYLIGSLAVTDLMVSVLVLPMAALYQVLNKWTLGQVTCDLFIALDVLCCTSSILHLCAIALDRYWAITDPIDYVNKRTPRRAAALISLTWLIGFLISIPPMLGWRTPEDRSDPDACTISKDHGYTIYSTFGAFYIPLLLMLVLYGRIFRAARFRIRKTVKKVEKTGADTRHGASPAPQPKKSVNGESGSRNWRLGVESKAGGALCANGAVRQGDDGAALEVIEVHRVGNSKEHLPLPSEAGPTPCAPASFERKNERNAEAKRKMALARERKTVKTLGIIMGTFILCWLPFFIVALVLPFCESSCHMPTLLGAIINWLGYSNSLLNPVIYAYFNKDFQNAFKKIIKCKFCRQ
// pEC50: -log10(molar conc.)

As a guide, the following entries are already answered.
[[record]]
compound = "Cc1ccc2cccc(N3CCN(C4CCN(c5cccc6cccnc56)CC4)CC3)c2n1 [Example 10]"
measure = "pEC50"
test_result = 8.48

[[record]]
compound = "Clc1ccc(N2CCN(C3CCN(c4cccc5cccnc45)CC3)CC2)c2ncccc12 [Example 8]"
measure = "pEC50"
test_result = 7.70

[[record]]
compound = "Fc1ccc(N2CCC(N3CCN(c4cccc5cccnc45)CC3)CC2)c2ncccc12 [C]"
measure = "pEC50"
test_result = 8.16

[[record]]
compound = "COc1ccccc1N1CCN(C2CCN(c3csc4ccccc34)CC2)CC1 [G]"
measure = "pEC50"
test_result = 7.66


Kindly review the next compound as well.
Item c1cc2c(c(N3CCN(C4CCN(c5cccc6cccnc56)CC4)CC3)c1)OCCO2 [E] : provide pEC50
8.62

Measured values drawn from patent US7671056B2 for this set.
